B1: PCDHGA10 (parent)
chain: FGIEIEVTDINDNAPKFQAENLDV

- Variants of: B1
- ASSAY_DETAILS: protein stability index of a GFP-peptide fusion (GPS, HEK-293T) (PSI 1-6); higher = more stable;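 note: lentivirally expressed fusions sorted by FACS into six bins by GFP to DsRed ratio, PSI derived from sequencing read proportions per bin multiplied by bin number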
- SETTINGS: c terminus: a fixed tail appended
# protein stability index >= 3 gives Y, anything below gives N

Use these answered entries as a reference point.
>  <MUTANT_NAME>
F1A

>  <QUALITATIVE_LABEL>
Y

$$$$
>  <MUTANT_NAME>
A19G

>  <QUALITATIVE_LABEL>
Y

$$$$
>  <MUTANT_NAME>
Q18S

>  <QUALITATIVE_LABEL>
N

$$$$
>  <MUTANT_NAME>
F17D

>  <QUALITATIVE_LABEL>
Y

$$$$
>  <MUTANT_NAME>
G2A

>  <QUALITATIVE_LABEL>
N

$$$$
>  <MUTANT_NAME>
I3D

>  <QUALITATIVE_LABEL>
Y

$$$$

input: Would you say A19V shows protein stability index at minimum 3?
output: N

input: Would you say N11Y shows protein stability index at minimum 3?
output: N

input: Would you say N13I shows protein stability index at minimum 3?
output: N

input: Would you say P15I shows protein stability index at minimum 3?
output: N

input: Would you say I5P shows protein stability index at minimum 3?
output: Y

input: Would you say I10H shows protein stability index at minimum 3?
output: Y

Cited source: the supplement of paper PMC10567573
